Ref: PubChem BioAssay (Tox21)

test: qHTS assay to identify small molecule antagonists of the farnesoid-X-receptor (FXR) signaling pathway - cell viability counter screen (AID 743221); also: nearly all actives have a fitted effect of over 50% in size
appliedConditions: FXR-bla HEK293T viability, CellTiter-Glo luminescence, 16 h; series mostly up to 62.6 µM
Results filed as inconclusive are left out. Activity calls are given as the source filed them. Calls follow the shape of the dose curve; as a rule, active = well fitted cell-killing curve with a large enough effect in the repeat runs (not every such curve was filed as active); inconclusive = weak or mixed curves, or effect the other way; inactive = no such curve, though single readings can be large or run the other way.
The reply should be one of these categories: T for active, F for inactive

>  <molecule>
O=[N+]([O-])c1cc([N+](=O)[O-])c2ccc(S(=O)(=O)O)cc2c1O

>  <group>
F

$$$$
>  <molecule>
CCCCCCOC(=O)c1ccc(O)cc1

>  <group>
F

$$$$
>  <molecule>
Cc1ccc2oc(CN(Cc3ccccc3)C(=O)Nc3c(F)cc(F)cc3F)c(-c3ccc(Cl)cc3)c2c1

>  <group>
F

$$$$
>  <molecule>
C[C@@H]1C[C@H]2[C@@H]3CCC4=CC(=O)C=C[C@]4(C)[C@@]3(Cl)[C@@H](O)C[C@]2(C)[C@@]1(OC(=O)c1ccco1)C(=O)CCl

>  <group>
F

$$$$
>  <molecule>
Cc1cccc(N(C)C(=S)Oc2ccc3c(c2)C2CCC3C2)c1 (stereo not given)

>  <group>
F

$$$$

Tell me the assay call for Nc1nc2ccccc2n1Cc1ccc(F)cc1 please.
F

// same read-out, input: COc1ccc(CN2CCN(C(c3ccc(F)cc3)c3ccc(F)cc3)CC2)c(OC)c1OC
T

// same read-out, input: CCCCCCCCn1sc(Cl)c(Cl)c1=O
T

// same read-out, input: CCN(Cc1cccnc1)C(=O)c1cccc(Cl)c1[C@]1(C)C(=O)N(Cc2ccc(OC)cc2OC)c2ccc(Cl)cc21
T

// same read-out, input: CCCCCCCCCCCCCCCCCC[N+](C)(C)C
T
